Tested on: 494315-158-R-J1-PDC complex spheroid growth, percent test/control
PROTOCOL: Anticancer human tumor 494315-158-R-J1-PDC patient-derived soft tissue sarcoma cell line growth inhibition [Asc]
CONDITION_SET: second compound 1 µM; first compound 0.1 µM; active compounds read low
QUANTITY_NAME: viability, T/C

stdin: Supply reported viability, T/C belonging to this compound: C=C(F)C(=O)N1CCN(c2nc(OCC3CCCN3C)nc3c2CCN(c2cccc4cccc(Cl)c24)C3)CC1CC#N (configuration not stated) + Cc1c(S(C)(=O)=O)c(-c2cc(F)cc(N3CCN(c4ccc(NS(=O)(=O)c5ccc(NC(CCN6CCC(C(=O)OCCCP(=O)(O)O)CC6)CSc6ccccc6)c(S(=O)(=O)C(F)(F)F)c5)cc4)CC3)c2)c(-c2ccc(Cl)cc2)n1C(C)C
stdout: 67%

stdin: For C=C(F)C(=O)N1CCN(c2nc(OCC3CCCN3C)nc3c2CCN(c2cccc4cccc(Cl)c24)C3)CC1CC#N (configuration not stated) + CNC(C)C(=O)NC1CN(S(=O)(=O)c2cccc(S(=O)(=O)N3CCC4CCC(C(=O)NC(c5ccccc5)c5ccccc5)N4C(=O)C(NC(=O)C(C)NC)C3)c2)CCC2CCC(C(=O)NC(c3ccccc3)c3ccccc3)N2C1=O , write its viability, T/C.
stdout: 39.9%

----------
Could you please report measured viability, T/C for the items listed next?
System: 494315-158-R-J1-PDC complex spheroid growth, percent test/control
PROTOCOL: Anticancer human tumor 494315-158-R-J1-PDC cell line growth inhibition [Asc];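 note: compound exposure lasted seven days after spheroids formed for three days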
CONDITION_SET: second compound 0.0949 µM; first compound 3.16 µM; active compounds read low
Reply numerically in %, unit not repeated.

stdin: Identify measured viability, T/C corresponding to C=CC(=O)N1CCN(c2nc(=O)n(-c3c(C)ccnc3C(C)C)c3nc(-c4c(O)cccc4F)c(F)cc23)C(C)C1 (centres undefined) + CCN1C(C(=O)NC23CCC(C(=O)O)(CC2)CC3)C(c2cccc(Cl)c2F)C2(C(=O)Nc3cc(Cl)ccc32)C12CCCCC2
stdout: 92.8

stdin: Give recorded viability, T/C. C#Cc1c(F)ccc2cc(O)cc(-c3ncc4c(N5CC6CCC(C5)N6)nc(OCC56CCCN5CC(F)C6)nc4c3F)c12 (centres undefined) + CCN1C(C(=O)NC23CCC(C(=O)O)(CC2)CC3)C(c2cccc(Cl)c2F)C2(C(=O)Nc3cc(Cl)ccc32)C12CCCCC2
stdout: 90.5

stdin: Dear colleague, please send me the reported viability, T/C for O=C(c1cc(Cc2n[nH]c(=O)c3ccccc23)ccc1F)N1CCN(C(=O)C2CC2)CC1 + CCN1C(C(=O)NC23CCC(C(=O)O)(CC2)CC3)C(c2cccc(Cl)c2F)C2(C(=O)Nc3cc(Cl)ccc32)C12CCCCC2 when you can.
stdout: 74.3

stdin: Complete the entry with viability, T/C for C=C(F)C(=O)N1CCN(c2nc(OCC3CCCN3C)nc3c2CCN(c2cccc4cccc(Cl)c24)C3)CC1CC#N (centres undefined) + CCN1C(C(=O)NC23CCC(C(=O)O)(CC2)CC3)C(c2cccc(Cl)c2F)C2(C(=O)Nc3cc(Cl)ccc32)C12CCCCC2
stdout: 50.2

----------
Tested on: 494315-158-R-J1-PDC complex spheroid growth, percent test/control
PROTOCOL: Anticancer human tumor 494315-158-R-J1-PDC cell line growth inhibition [Asc];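 note: compound exposure lasted seven days after spheroids formed for three days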
CONDITION_SET: second compound 0.03 µM; first compound 0.00316 µM; active compounds read low
QUANTITY_NAME: viability, T/C (%)
The reply should contain only the number, in %.

stdin: Given O=C(c1ccc(F)c(F)c1Nc1ccc(I)cc1F)N1CC(O)([C@@H]2CCCCN2)C1 + CCN1C(C(=O)NC23CCC(C(=O)O)(CC2)CC3)C(c2cccc(Cl)c2F)C2(C(=O)Nc3cc(Cl)ccc32)C12CCCCC2 , respond with its viability, T/C.
stdout: 110

stdin: Return viability, T/C for the following molecule: COc1c(OCCCN2CCOCC2)ccc2c3n(c(=NC(=O)c4cnc(N)nc4)nc12)CCN3 + CCN1C(C(=O)NC23CCC(C(=O)O)(CC2)CC3)C(c2cccc(Cl)c2F)C2(C(=O)Nc3cc(Cl)ccc32)C12CCCCC2
stdout: 84

stdin: Provide one value: measured viability, T/C of Cn1ncnc1[C@H]1c2n[nH]c(=O)c3cc(F)cc(c23)N[C@@H]1c1ccc(F)cc1 + CCN1C(C(=O)NC23CCC(C(=O)O)(CC2)CC3)C(c2cccc(Cl)c2F)C2(C(=O)Nc3cc(Cl)ccc32)C12CCCCC2
stdout: 86.8

stdin: Answer with reported viability, T/C of CCN1CCN(Cc2ccc(Nc3ncc(F)c(-c4cc(F)c5nc(C)n(C(C)C)c5c4)n3)nc2)CC1 + CCN1C(C(=O)NC23CCC(C(=O)O)(CC2)CC3)C(c2cccc(Cl)c2F)C2(C(=O)Nc3cc(Cl)ccc32)C12CCCCC2
stdout: 109

stdin: Please list viability, T/C recorded for the molecule CNC(C)C(=O)NC1CN(S(=O)(=O)c2cccc(S(=O)(=O)N3CCC4CCC(C(=O)NC(c5ccccc5)c5ccccc5)N4C(=O)C(NC(=O)C(C)NC)C3)c2)CCC2CCC(C(=O)NC(c3ccccc3)c3ccccc3)N2C1=O (stereo unspecified) + CCN1C(C(=O)NC23CCC(C(=O)O)(CC2)CC3)C(c2cccc(Cl)c2F)C2(C(=O)Nc3cc(Cl)ccc32)C12CCCCC2
stdout: 87.4

stdin: Specify reported viability, T/C for the molecule shown: NC1CCC(NC2CC2c2ccccc2)CC1 (stereo unspecified) + CCN1C(C(=O)NC23CCC(C(=O)O)(CC2)CC3)C(c2cccc(Cl)c2F)C2(C(=O)Nc3cc(Cl)ccc32)C12CCCCC2
stdout: 89.8

----------
Test system: 494315-158-R-J1-PDC complex spheroid growth, percent test/control
PROTOCOL: Anticancer human tumor 494315-158-R-J1-PDC cell line growth inhibition [Asc];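 note: compound exposure lasted seven days after spheroids formed for three days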
CONDITION_SET: second compound 1 µM; first compound 0.1 µM; active compounds read low
I'd appreciate it if you could supply viability, T/C values for the items below.
All answers are understood in %, so give the number only.

stdin: Supply viability, T/C value. Item: NC1CCC(NC2CC2c2ccccc2)CC1 (centres undefined) + CNC(C)C(=O)NC1CN(S(=O)(=O)c2cccc(S(=O)(=O)N3CCC4CCC(C(=O)NC(c5ccccc5)c5ccccc5)N4C(=O)C(NC(=O)C(C)NC)C3)c2)CCC2CCC(C(=O)NC(c3ccccc3)c3ccccc3)N2C1=O
stdout: 46.9

stdin: Fill in viability, T/C for record O=C(c1ccc(F)c(F)c1Nc1ccc(I)cc1F)N1CC(O)([C@@H]2CCCCN2)C1 + CNC(C)C(=O)NC1CN(S(=O)(=O)c2cccc(S(=O)(=O)N3CCC4CCC(C(=O)NC(c5ccccc5)c5ccccc5)N4C(=O)C(NC(=O)C(C)NC)C3)c2)CCC2CCC(C(=O)NC(c3ccccc3)c3ccccc3)N2C1=O
stdout: 66.3

stdin: Provide only the value of recorded viability, T/C for COc1c(OCCCN2CCOCC2)ccc2c3n(c(=NC(=O)c4cnc(N)nc4)nc12)CCN3 + Cc1c(S(C)(=O)=O)c(-c2cc(F)cc(N3CCN(c4ccc(NS(=O)(=O)c5ccc(NC(CCN6CCC(C(=O)OCCCP(=O)(O)O)CC6)CSc6ccccc6)c(S(=O)(=O)C(F)(F)F)c5)cc4)CC3)c2)c(-c2ccc(Cl)cc2)n1C(C)C
stdout: 26.6

stdin: Answer with the recorded viability, T/C of O=C(c1cc(Cc2n[nH]c(=O)c3ccccc23)ccc1F)N1CCN(C(=O)C2CC2)CC1 + Cc1c(S(C)(=O)=O)c(-c2cc(F)cc(N3CCN(c4ccc(NS(=O)(=O)c5ccc(NC(CCN6CCC(C(=O)OCCCP(=O)(O)O)CC6)CSc6ccccc6)c(S(=O)(=O)C(F)(F)F)c5)cc4)CC3)c2)c(-c2ccc(Cl)cc2)n1C(C)C only.
stdout: 70.9

----------
Test system: 494315-158-R-J1-PDC complex spheroid growth, percent test/control
PROTOCOL: Anticancer human tumor 494315-158-R-J1-PDC cell line growth inhibition [Asc];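 note: compound exposure lasted seven days after spheroids formed for three days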
CONDITION_SET: second compound 3 µM; first compound 0.316 µM; active compounds read low
QUANTITY_NAME: viability, T/C (%)
Quick reminder: number only, in %, skip the unit.

stdin: Report value only: viability, T/C, 494315-158-R-J1-PDC complex spheroid growth, percent test/control, C=CC(=O)N1CCN(c2nc(=O)n(-c3c(C)ccnc3C(C)C)c3nc(-c4c(O)cccc4F)c(F)cc23)C(C)C1 (stereo not given) + CCN1C(C(=O)NC23CCC(C(=O)O)(CC2)CC3)C(c2cccc(Cl)c2F)C2(C(=O)Nc3cc(Cl)ccc32)C12CCCCC2
stdout: 97.9

stdin: State recorded viability, T/C with 494315-158-R-J1-PDC complex spheroid growth, percent test/control, entry CNC(C)C(=O)NC1CN(S(=O)(=O)c2cccc(S(=O)(=O)N3CCC4CCC(C(=O)NC(c5ccccc5)c5ccccc5)N4C(=O)C(NC(=O)C(C)NC)C3)c2)CCC2CCC(C(=O)NC(c3ccccc3)c3ccccc3)N2C1=O (stereo not given) + CCN1C(C(=O)NC23CCC(C(=O)O)(CC2)CC3)C(c2cccc(Cl)c2F)C2(C(=O)Nc3cc(Cl)ccc32)C12CCCCC2 , no comment.
stdout: 28.4

stdin: State viability, T/C (494315-158-R-J1-PDC complex spheroid growth, percent test/control) of O=C(c1ccc(F)c(F)c1Nc1ccc(I)cc1F)N1CC(O)([C@@H]2CCCCN2)C1 + CCN1C(C(=O)NC23CCC(C(=O)O)(CC2)CC3)C(c2cccc(Cl)c2F)C2(C(=O)Nc3cc(Cl)ccc32)C12CCCCC2 .
stdout: 84.5

stdin: Provide the reported viability, T/C (system: 494315-158-R-J1-PDC complex spheroid growth, percent test/control) for CCN1CCN(Cc2ccc(Nc3ncc(F)c(-c4cc(F)c5nc(C)n(C(C)C)c5c4)n3)nc2)CC1 + CCN1C(C(=O)NC23CCC(C(=O)O)(CC2)CC3)C(c2cccc(Cl)c2F)C2(C(=O)Nc3cc(Cl)ccc32)C12CCCCC2
stdout: 100

stdin: Given O=C(c1cc(Cc2n[nH]c(=O)c3ccccc23)ccc1F)N1CCN(C(=O)C2CC2)CC1 + CCN1C(C(=O)NC23CCC(C(=O)O)(CC2)CC3)C(c2cccc(Cl)c2F)C2(C(=O)Nc3cc(Cl)ccc32)C12CCCCC2 , report its viability, T/C on 494315-158-R-J1-PDC complex spheroid growth, percent test/control.
stdout: 85

Where do the numbers come from? From PubChem BioAssay AID1963420.
